Parameters: species or system Beagle dogs
run.parameters: male, beagle, dog, in vivo, iv, 0.2 mg/kg
measured.quantity: clearance

Requested field: clearance. Item: `COC(=O)OCOc1c2n(ccc1=O)N([C@H]1c3ccc(F)cc3-c3ccsc3-c3ccccc31)[C@@H]1COCCN1C2=O` 3.22 mL/min/kg

---

Recorded CC50 values for a group of molecules are listed next.
assay.comment: Cytotoxicity test group of the CPE assay (no virus added, CCK-8 kit)
Type: cell-based
run.parameters: dog, MDCK cells

Previously resolved entries follow.
O=C1c2c(O)c(=O)ccn2N([C@H]2c3ccc(F)cc3-c3ccsc3-c3cc(F)ccc32)[C@@H]2COCCN12 [Compound (17-1)] : 77.5 µM
O=C1c2c(O)c(=O)ccn2N([C@H]2c3ccc(F)c(F)c3CSc3c2ccc2ccccc32)[C@@H]2COCCN12 (racemic) [Example 7] : > 100 µM
O=C1c2c(O)c(=O)ccn2N(C2c3ccccc3-c3cc(Cl)sc3-c3ccccc32)[C@@H]2COCCN12 (stereo partly shown) [Example 15] : 39.4 µM

Item under review: O=C1c2c(O)c(=O)ccn2N([C@H]2c3ccccc3-c3cnoc3-c3ccccc32)[C@@H]2COCCN12 [Example 38] . Reported CC50? > 100 µM
